Provenance of the data: the supplement of paper PMC10567573

Provide the reported protein stability index of each item.
B1: C1orf137 (parent)
chain: RQHHHQSSFPGSLPQETNLTLKVC

# Variants of: B1
# Measurement protocol: protein stability index of a GFP-peptide fusion (GPS, HEK-293T) (PSI 1-6); higher = more stable;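 note: lentivirally expressed fusions sorted by FACS into six bins by GFP to DsRed ratio, PSI derived from sequencing read proportions per bin multiplied by bin number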
# Condition description: c terminus: a fixed tail appended
Give bare numbers.

Example variants with recorded protein stability index:
# Alteration, protein stability index
records = [
    ("G11D", 2.25),
    ("R1L", 2.44),
    ("L13I", 3.2),
    ("G11K", 3.79),
    ("S7E", 2.3),
]

# return protein stability index for each item in the list
1. L13V
2. V23I
3. L19I

OUT:
[3.65, 2.46, 3.39]

For each of the variants below, note its protein stability index.
1. L19H
2. P14N
3. T20E
4. P14L
5. L19G
6. E16C
7. K22T

OUT:
1: 4.14; 2: 2.54; 3: 3.61; 4: 2.29; 5: 3.98; 6: 1.47; 7: 2.43

IN: Supply recorded protein stability index for T17I here.
OUT: 1.17
